Hey, just so you know, these numbers are from ChEMBL document CHEMBL1128281.

As shown below, each of these molecules has a reported ED50 value.
- System: Rattus norvegicus
- method: Intracranial self stimulation in rat was determined after 1 hr of intraperitoneal administration of the compound
- Assay type: functional
- condition details: ip
measurement label: ED50 (mg/kg)

[[record]]
substance_smiles = "COc1cc(C(C)=O)ccc1OCCCN1CCC(c2noc3cc(F)ccc23)CC1"
target_desc = "Rattus norvegicus"
units_symbol = "mg/kg"
recorded_number = 0.15

[[record]]
substance_smiles = "O=C(CCCN1CCC(O)(c2ccc(Cl)cc2)CC1)c1ccc(F)cc1"
target_desc = "Rattus norvegicus"
units_symbol = "mg/kg"
recorded_number = 0.077

[[record]]
substance_smiles = "CN1CCN(C2=Nc3cc(Cl)ccc3Nc3ccccc32)CC1"
target_desc = "Rattus norvegicus"
units_symbol = "mg/kg"
recorded_number = 7.4

[[record]]
substance_smiles = "Cc1nc2n(c(=O)c1CCN1CCC(c3noc4cc(F)ccc34)CC1)CCCC2"
target_desc = "Rattus norvegicus"
units_symbol = "mg/kg"
recorded_number = 0.13


====

- target desc: Serotonin 2 (5-HT2) receptor (Rattus norvegicus, UniProt P30994+P08909+P14842)
- method: Affinity for 5-hydroxytryptamine 2 receptor binding sites by its ability to displace [3H]spiperone from rat frontal cortex.
measurement label: IC50

[[record]]
substance_smiles = "COc1cc(C(C)=O)ccc1OCCCN1CCC(c2noc3cc(Cl)ccc23)CC1"
measurement_label = "IC50"
result = "4.9 nM"

[[record]]
substance_smiles = "CC(=O)Nc1cc(C(C)=O)ccc1OCCCN1CCC(c2noc3cc(F)ccc23)CC1"
measurement_label = "IC50"
result = "20 nM"

[[record]]
substance_smiles = "COc1cc(C(=O)c2ccccc2)ccc1OCCCN1CCC(c2noc3cc(F)ccc23)CC1"
measurement_label = "IC50"
result = "241 nM"

[[record]]
substance_smiles = "COc1cc(C(C)=O)ccc1OCCN1CCC(c2noc3cc(Cl)ccc23)CC1"
measurement_label = "IC50"
result = "45 nM"

[[record]]
substance_smiles = "CC(=O)c1ccc(OCCCN2CCC(c3noc4cc(F)ccc34)CC2)cc1C"
measurement_label = "IC50"
result = "36 nM"


====

- target desc: Sigma non-opioid intracellular receptor 1 (Homo sapiens)
- Sequence (Q99720 whole entry): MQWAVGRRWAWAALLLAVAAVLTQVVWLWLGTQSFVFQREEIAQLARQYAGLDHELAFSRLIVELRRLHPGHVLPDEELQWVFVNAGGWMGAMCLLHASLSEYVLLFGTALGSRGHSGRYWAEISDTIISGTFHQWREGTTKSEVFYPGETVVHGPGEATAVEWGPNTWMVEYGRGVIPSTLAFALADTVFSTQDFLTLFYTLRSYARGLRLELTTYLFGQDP
- method: Binding affinity against sigma receptor using [3H]-( +)-SKF10,047 radioligand
pIC50: −log10 of the molar value.
measurement label: pIC50

[[record]]
substance_smiles = "COc1cc(C(C)=O)ccc1OCCCN1CCC(c2noc3cc(F)ccc23)CC1"
recorded_number = 7.19


====

As shown below, each of these compounds has a reported log10 IC50 value.
- target desc: Serotonin 2 (5-HT2) receptor (Rattus norvegicus, UniProt P30994+P08909+P14842)
- method: Affinity for 5-hydroxytryptamine 2 receptor binding sites by its ability to displace [3H]spiperone from rat frontal cortex.
measurement label: log10 IC50 (log10 of the value in nM)

[[record]]
compound = "CC(=O)c1cccc(OCCCN2CCC(c3noc4cc(F)ccc34)CC2)c1"
target_desc = "Serotonin 2 (5-HT2) receptor (Rattus norvegicus, UniProt P30994+P08909+P14842)"
recorded_number = 1.80

[[record]]
compound = "COc1cc(C(C)=O)ccc1SCCCN1CCC(c2noc3cc(F)ccc23)CC1"
target_desc = "Serotonin 2 (5-HT2) receptor (Rattus norvegicus, UniProt P30994+P08909+P14842)"
recorded_number = 1.61

[[record]]
compound = "C=C(C)c1ccc(OCCCN2CCC(c3noc4cc(F)ccc34)CC2)c(OC)c1"
target_desc = "Serotonin 2 (5-HT2) receptor (Rattus norvegicus, UniProt P30994+P08909+P14842)"
recorded_number = 1.30

[[record]]
compound = "CNc1ccccc1OCCCN1CCC(c2noc3cc(F)ccc23)CC1"
target_desc = "Serotonin 2 (5-HT2) receptor (Rattus norvegicus, UniProt P30994+P08909+P14842)"
recorded_number = 1.23

[[record]]
compound = "COc1ccc(N)cc1OCCCN1CCC(c2noc3cc(F)ccc23)CC1"
target_desc = "Serotonin 2 (5-HT2) receptor (Rattus norvegicus, UniProt P30994+P08909+P14842)"
recorded_number = 0.30

[[record]]
compound = "CC(O)c1ccc(OCCCN2CCC(c3noc4cc(F)ccc34)CC2)c(O)c1 (stereo unspecified)"
target_desc = "Serotonin 2 (5-HT2) receptor (Rattus norvegicus, UniProt P30994+P08909+P14842)"
recorded_number = 1.72

[[record]]
compound = "COc1cc(C(C)=O)ccc1OCCCN1CCC(c2noc3cc(F)ccc23)CC1"
target_desc = "Serotonin 2 (5-HT2) receptor (Rattus norvegicus, UniProt P30994+P08909+P14842)"
recorded_number = 0.95

[[record]]
compound = "COc1ccc(NC(C)=O)cc1OCCCN1CCC(c2noc3cc(F)ccc23)CC1"
target_desc = "Serotonin 2 (5-HT2) receptor (Rattus norvegicus, UniProt P30994+P08909+P14842)"
recorded_number = 0.58

[[record]]
compound = "COc1cc(C(C)=O)ccc1OCCCCN1CCC(c2noc3cc(F)ccc23)CC1"
target_desc = "Serotonin 2 (5-HT2) receptor (Rattus norvegicus, UniProt P30994+P08909+P14842)"
recorded_number = 0.93

[[record]]
compound = "COc1cc(C(=O)N(C)C)ccc1OCCCN1CCC(c2noc3cc(F)ccc23)CC1"
target_desc = "Serotonin 2 (5-HT2) receptor (Rattus norvegicus, UniProt P30994+P08909+P14842)"
recorded_number = 0.72

[[record]]
compound = "CCC(=O)c1ccc(OCCCN2CCC(c3noc4cc(F)ccc34)CC2)c(OC)c1"
target_desc = "Serotonin 2 (5-HT2) receptor (Rattus norvegicus, UniProt P30994+P08909+P14842)"
recorded_number = 1.04

[[record]]
compound = "COc1cc(C(C)O)ccc1OCCCN1CCC(c2noc3cc(F)ccc23)CC1 (stereo unspecified)"
target_desc = "Serotonin 2 (5-HT2) receptor (Rattus norvegicus, UniProt P30994+P08909+P14842)"
recorded_number = 1.34

[[record]]
compound = "COc1cc(OCCCN2CCC(c3noc4cc(F)ccc34)CC2)ccc1C(C)=O"
target_desc = "Serotonin 2 (5-HT2) receptor (Rattus norvegicus, UniProt P30994+P08909+P14842)"
recorded_number = 1.36

[[record]]
compound = "COc1cc(Br)ccc1OCCCN1CCC(c2noc3cc(F)ccc23)CC1"
target_desc = "Serotonin 2 (5-HT2) receptor (Rattus norvegicus, UniProt P30994+P08909+P14842)"
recorded_number = 1.69

[[record]]
compound = "CC(=O)c1cc(C)ccc1OCCCN1CCC(c2noc3cc(F)ccc23)CC1"
target_desc = "Serotonin 2 (5-HT2) receptor (Rattus norvegicus, UniProt P30994+P08909+P14842)"
recorded_number = 2.18

[[record]]
compound = "CC(=O)c1ccc(OCCCN2CCC(c3noc4cc(F)ccc34)CC2)c(N(C)C)c1"
target_desc = "Serotonin 2 (5-HT2) receptor (Rattus norvegicus, UniProt P30994+P08909+P14842)"
recorded_number = 1.20

[[record]]
compound = "COc1cc(C(C)=O)ccc1OCCCN1CCC(c2noc3ccc(F)cc23)CC1"
target_desc = "Serotonin 2 (5-HT2) receptor (Rattus norvegicus, UniProt P30994+P08909+P14842)"
recorded_number = 2.09

[[record]]
compound = "COc1cc(C(C)=O)ccc1OCCCCN1CCC(c2noc3ccccc23)CC1"
target_desc = "Serotonin 2 (5-HT2) receptor (Rattus norvegicus, UniProt P30994+P08909+P14842)"
recorded_number = 1.53

[[record]]
compound = "COc1ccccc1OCCCN1CCC(c2noc3cc(F)ccc23)CC1"
target_desc = "Serotonin 2 (5-HT2) receptor (Rattus norvegicus, UniProt P30994+P08909+P14842)"
recorded_number = 0.72

[[record]]
compound = "COc1cc(C(=O)C(F)(F)F)ccc1OCCCN1CCC(c2noc3cc(F)ccc23)CC1"
target_desc = "Serotonin 2 (5-HT2) receptor (Rattus norvegicus, UniProt P30994+P08909+P14842)"
recorded_number = 1.58

[[record]]
compound = "COc1cc(/C(C)=N\\N)ccc1OCCCN1CCC(c2noc3cc(F)ccc23)CC1"
target_desc = "Serotonin 2 (5-HT2) receptor (Rattus norvegicus, UniProt P30994+P08909+P14842)"
recorded_number = 1.30

[[record]]
compound = "COc1cc(C(C)=O)ccc1OCCN1CCC(c2noc3cc(F)ccc23)CC1"
target_desc = "Serotonin 2 (5-HT2) receptor (Rattus norvegicus, UniProt P30994+P08909+P14842)"
recorded_number = 1.83

[[record]]
compound = "COc1cc(C(C)=O)ccc1OCCCCN1CCC(c2noc3cc(Cl)ccc23)CC1"
target_desc = "Serotonin 2 (5-HT2) receptor (Rattus norvegicus, UniProt P30994+P08909+P14842)"
recorded_number = 2.16

[[record]]
compound = "COc1cc(/C(C)=N\\O)ccc1OCCCN1CCC(c2noc3cc(F)ccc23)CC1"
target_desc = "Serotonin 2 (5-HT2) receptor (Rattus norvegicus, UniProt P30994+P08909+P14842)"
recorded_number = -0.15

[[record]]
compound = "COc1cc(C(N)=O)ccc1OCCCN1CCC(c2noc3cc(F)ccc23)CC1"
target_desc = "Serotonin 2 (5-HT2) receptor (Rattus norvegicus, UniProt P30994+P08909+P14842)"
recorded_number = -0.05

[[record]]
compound = "COc1cc(C(C)=O)ccc1OCCN1CCC(c2noc3ccccc23)CC1"
target_desc = "Serotonin 2 (5-HT2) receptor (Rattus norvegicus, UniProt P30994+P08909+P14842)"
recorded_number = 1.41

[[record]]
compound = "CC(=O)c1ccc(OCCCN2CCC(c3noc4cc(F)ccc34)CC2)cc1"
target_desc = "Serotonin 2 (5-HT2) receptor (Rattus norvegicus, UniProt P30994+P08909+P14842)"
recorded_number = 0.74

[[record]]
compound = "COc1cc2cc[nH]c2cc1OCCCN1CCC(c2noc3cc(F)ccc23)CC1"
target_desc = "Serotonin 2 (5-HT2) receptor (Rattus norvegicus, UniProt P30994+P08909+P14842)"
recorded_number = 0.51

[[record]]
compound = "CCc1ccc(OCCCN2CCC(c3noc4cc(F)ccc34)CC2)c(OC)c1"
target_desc = "Serotonin 2 (5-HT2) receptor (Rattus norvegicus, UniProt P30994+P08909+P14842)"
recorded_number = 1.20

[[record]]
compound = "CC(=O)c1ccc2c(c1)OCC(CCN1CCC(c3noc4cc(F)ccc34)CC1)O2 (stereo unspecified)"
target_desc = "Serotonin 2 (5-HT2) receptor (Rattus norvegicus, UniProt P30994+P08909+P14842)"
recorded_number = 1.96

[[record]]
compound = "CSc1cc(C(C)=O)ccc1OCCCN1CCC(c2noc3cc(F)ccc23)CC1"
target_desc = "Serotonin 2 (5-HT2) receptor (Rattus norvegicus, UniProt P30994+P08909+P14842)"
recorded_number = 2.23

[[record]]
compound = "CNc1cc(C(C)=O)ccc1OCCCN1CCC(c2noc3cc(F)ccc23)CC1"
target_desc = "Serotonin 2 (5-HT2) receptor (Rattus norvegicus, UniProt P30994+P08909+P14842)"
recorded_number = 1.62

[[record]]
compound = "CCOc1cc(C(C)=O)ccc1OCCCN1CCC(c2noc3cc(F)ccc23)CC1"
target_desc = "Serotonin 2 (5-HT2) receptor (Rattus norvegicus, UniProt P30994+P08909+P14842)"
recorded_number = 0.58

[[record]]
compound = "COc1cc(C(C)=O)ccc1OCCCN1CCC(c2noc3ccccc23)CC1"
target_desc = "Serotonin 2 (5-HT2) receptor (Rattus norvegicus, UniProt P30994+P08909+P14842)"
recorded_number = 0.54

[[record]]
compound = "CC(=O)c1ccc(OCCCN2CCC(c3noc4cc(F)ccc34)CC2)c(O)c1"
target_desc = "Serotonin 2 (5-HT2) receptor (Rattus norvegicus, UniProt P30994+P08909+P14842)"
recorded_number = 0.46

[[record]]
compound = "CCCCC(=O)c1ccc(OCCCN2CCC(c3noc4cc(F)ccc34)CC2)c(OC)c1"
target_desc = "Serotonin 2 (5-HT2) receptor (Rattus norvegicus, UniProt P30994+P08909+P14842)"
recorded_number = 1.95

[[record]]
compound = "COc1cc(C(C)=O)ccc1NCCCN1CCC(c2noc3cc(F)ccc23)CC1"
target_desc = "Serotonin 2 (5-HT2) receptor (Rattus norvegicus, UniProt P30994+P08909+P14842)"
recorded_number = 1.26

[[record]]
compound = "Fc1ccc2c(C3CCN(CCCOc4ccccc4)CC3)noc2c1"
target_desc = "Serotonin 2 (5-HT2) receptor (Rattus norvegicus, UniProt P30994+P08909+P14842)"
recorded_number = 1.52

[[record]]
compound = "COc1cc(C#N)ccc1OCCCN1CCC(c2noc3cc(F)ccc23)CC1"
target_desc = "Serotonin 2 (5-HT2) receptor (Rattus norvegicus, UniProt P30994+P08909+P14842)"
recorded_number = 1.65

